Molecular target: HUG (HELP-UnaG) (Anguilla japonica, UniProt P0DM59)
Construct: entire UnaG (139 aa) fused to the C-terminus of the synthetic human elastin-like polypeptide HELP (536 aa, VAPGVG hexapeptide repeats); fusion of 675 aa, 60,406 Da; expressed in E. coli, purified by inverse phase transition
Sequence (P0DM59 whole entry, the tested form may be a part): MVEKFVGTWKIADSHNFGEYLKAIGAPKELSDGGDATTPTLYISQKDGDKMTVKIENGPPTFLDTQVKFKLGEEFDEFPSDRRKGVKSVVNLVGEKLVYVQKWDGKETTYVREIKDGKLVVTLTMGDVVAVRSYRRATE
Assay: fluorescence titration (ex […] nm, em […] nm), nonlinear fit of […] binding model
TEST READOUT: pKd
Give bare numbers, as −log10 of the molar value.

Tell me the measured pKd of `C=CC1=C(C)/C(=C/c2[nH]c(Cc3[nH]c(/C=C4\NC(=O)C(C)=C4C=C)c(C)c3CCC(=O)O)c(CCC(=O)O)c2C)NC1=O` , please.
8.96
